# study system: human ether-à-go-go-related gene (hERG) potassium channel (human, UniProt Q12809)
# Sequence (Q12809 whole entry, looked up): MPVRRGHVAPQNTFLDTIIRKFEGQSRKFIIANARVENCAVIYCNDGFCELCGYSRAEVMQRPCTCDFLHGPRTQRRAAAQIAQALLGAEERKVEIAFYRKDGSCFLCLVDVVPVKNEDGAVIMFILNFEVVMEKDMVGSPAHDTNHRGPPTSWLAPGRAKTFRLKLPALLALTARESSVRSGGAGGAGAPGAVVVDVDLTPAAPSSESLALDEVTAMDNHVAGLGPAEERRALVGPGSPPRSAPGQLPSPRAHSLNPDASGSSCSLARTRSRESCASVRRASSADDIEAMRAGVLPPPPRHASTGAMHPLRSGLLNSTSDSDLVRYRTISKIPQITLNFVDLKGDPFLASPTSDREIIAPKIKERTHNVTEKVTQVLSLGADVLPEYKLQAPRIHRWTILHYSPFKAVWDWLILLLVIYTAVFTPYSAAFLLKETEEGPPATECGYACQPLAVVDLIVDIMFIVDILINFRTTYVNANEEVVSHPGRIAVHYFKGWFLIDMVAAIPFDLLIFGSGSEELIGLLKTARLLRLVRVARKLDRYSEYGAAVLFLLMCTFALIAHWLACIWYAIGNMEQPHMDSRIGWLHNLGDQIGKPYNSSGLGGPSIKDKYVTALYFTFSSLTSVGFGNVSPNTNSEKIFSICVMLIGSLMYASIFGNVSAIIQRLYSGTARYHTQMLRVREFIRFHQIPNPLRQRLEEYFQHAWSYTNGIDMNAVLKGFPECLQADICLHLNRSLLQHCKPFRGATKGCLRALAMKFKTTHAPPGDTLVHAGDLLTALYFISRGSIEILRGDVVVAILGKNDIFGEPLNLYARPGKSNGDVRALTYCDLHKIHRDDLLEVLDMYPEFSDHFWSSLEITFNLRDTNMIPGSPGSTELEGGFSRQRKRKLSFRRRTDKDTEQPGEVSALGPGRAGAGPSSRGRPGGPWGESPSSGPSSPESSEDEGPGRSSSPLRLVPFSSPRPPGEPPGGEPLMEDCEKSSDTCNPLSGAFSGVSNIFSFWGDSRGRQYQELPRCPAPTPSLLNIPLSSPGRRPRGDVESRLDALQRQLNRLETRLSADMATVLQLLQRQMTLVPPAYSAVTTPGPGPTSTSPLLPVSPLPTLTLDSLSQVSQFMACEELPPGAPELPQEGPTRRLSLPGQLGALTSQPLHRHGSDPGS
# assay text: primary screen, population patch clamp on CHO cells stably expressing hERG; higher = less effect of the substance
Hit rate of the full screen: of about 310,000 compounds, about 2,200 (0.71%) showed an effect of 50% or more. Effects have a minus sign here. Only a selection was taken, and strong results are over-represented in it overall.
Known hERG current change (%, negative = inhibition) at 1uM of a selection of compounds
readout type: hERG current change (%, negative = inhibition) at 1uM (%)

structure_as_smiles=COc1ccc(NC(=O)CCN2CCN(S(=O)(=O)c3ccc(Cl)cc3)CC2)cc1 unit_tag=% recorded_measurement=2.03
structure_as_smiles=O=C(CSc1nn(-c2ccc(F)cc2)c(=S)s1)N1CCN(C(=O)c2ccco2)CC1 unit_tag=% recorded_measurement=-64.6
structure_as_smiles=CCOc1ccc(NC(=O)CN2CCN(S(=O)(=O)c3ccc(Cl)cc3)CC2)cc1 unit_tag=% recorded_measurement=10.8
structure_as_smiles=NC(=O)C1(N2CCCCC2)CCN(CC(=O)Nc2ccccc2-c2ccccc2)CC1 unit_tag=% recorded_measurement=15.5
structure_as_smiles=COc1ccc(NC(=O)CN2CCCCCC2)cc1OC unit_tag=% recorded_measurement=7.92
structure_as_smiles=Cc1nc(C(=O)Nc2cc(Cl)ccc2Cl)nn1-c1cc(OC(C)C)c(Cl)cc1Cl unit_tag=% recorded_measurement=-0.146
structure_as_smiles=Cc1ccc(NC(=O)c2ccc3ccccc3n2)cc1S(=O)(=O)N1CCOCC1 unit_tag=% recorded_measurement=14
structure_as_smiles=CCOc1ccc(NC(=O)CN(C)C(=O)c2ccc(COc3ccccc3)cc2)cc1OCC unit_tag=% recorded_measurement=4.94
structure_as_smiles=COc1ccc(NC(=O)CN2CCN(CC(=O)Nc3ccc(OC)c(OC)c3)CC2)cc1 unit_tag=% recorded_measurement=-66.1
structure_as_smiles=N[C@@H]1CONC1=O unit_tag=% recorded_measurement=18.7

* * *

# study system: human ether-à-go-go-related gene (hERG) potassium channel (human, UniProt Q12809)
# assay text: primary screen, population patch clamp on CHO cells stably expressing hERG; higher = less effect of the substance
Screen size: about 310,000 compounds; about 2,200 (0.71%) showed an effect of 50% or more. Effects have a minus sign here. Shown is part of a subset that was picked to be rich in strong results.
Would you please tag the item Met when its hERG current change (%, negative = inhibition) at 1uM is 10% or above, and Not met when it is below?

compound=CSc1nnc(Cc2sc(-c3ccccc3)nc2-c2ccccc2)o1 study_system="human ether-à-go-go-related gene (hERG) potassium channel (human, UniProt Q12809)" assigned_label=Met
compound=CSc1ccc(S(=O)(=O)N2CCC(C(=O)Nc3ccccc3C(F)(F)F)CC2)cc1 study_system="human ether-à-go-go-related gene (hERG) potassium channel (human, UniProt Q12809)" assigned_label=Met
compound=CCNC(=O)OCCC12CC3CC(CC(C3)C1)C2 study_system="human ether-à-go-go-related gene (hERG) potassium channel (human, UniProt Q12809)" assigned_label=Met
compound=CCCc1cc(=O)oc2c(C)c(OCC(=O)NCCN3CCOCC3)ccc12 study_system="human ether-à-go-go-related gene (hERG) potassium channel (human, UniProt Q12809)" assigned_label="Not met"
compound="CC1CC1C(=O)Nc1nc(-c2cccs2)c(-c2cccs2)s1 (centres unmarked)" study_system="human ether-à-go-go-related gene (hERG) potassium channel (human, UniProt Q12809)" assigned_label="Not met"
compound=CCOc1cc(/C=C2\C(=O)ON=C2c2ccccc2)cc(Br)c1O study_system="human ether-à-go-go-related gene (hERG) potassium channel (human, UniProt Q12809)" assigned_label=Met
compound="COc1ccccc1-n1c(SC(C)C(=O)NCC2CCCO2)nc2cc(Cl)ccc2c1=O (centres unmarked)" study_system="human ether-à-go-go-related gene (hERG) potassium channel (human, UniProt Q12809)" assigned_label=Met
compound="COc1ccc(CNC(=O)C2(CC3CC(c4ccccc4)=NO3)CCN(C(=O)C3(C)CC3)CC2)cc1 (centres unmarked)" study_system="human ether-à-go-go-related gene (hERG) potassium channel (human, UniProt Q12809)" assigned_label="Not met"
compound=CCc1cc(=O)oc2c(C)c(OCC(=O)NCCN3CCOCC3)ccc12 study_system="human ether-à-go-go-related gene (hERG) potassium channel (human, UniProt Q12809)" assigned_label=Met
compound=COC(=O)CN1C(=O)[C@H]2[C@@H](C3CC3)N3C(=O)CN(Cc4ccc(-c5ccccc5)cc4)C(=O)[C@@]3(Cc3ccccc3)[C@H]2C1=O study_system="human ether-à-go-go-related gene (hERG) potassium channel (human, UniProt Q12809)" assigned_label=Met
compound="OCC1(Cc2ccccc2F)CCCN(CCc2ccccc2)C1 (centres unmarked)" study_system="human ether-à-go-go-related gene (hERG) potassium channel (human, UniProt Q12809)" assigned_label="Not met"
compound="COc1ccc(CNC(=O)C2(CC3CC(c4ccccc4)=NO3)CCN(C(=O)c3cccc(O)c3)CC2)cc1 (centres unmarked)" study_system="human ether-à-go-go-related gene (hERG) potassium channel (human, UniProt Q12809)" assigned_label="Not met"
compound=CCOC(=O)CNC(=O)c1cc2c(=O)[nH]c3ccc(C)cc3c2s1 study_system="human ether-à-go-go-related gene (hERG) potassium channel (human, UniProt Q12809)" assigned_label=Met
compound=O=C(c1sc2cc([N+](=O)[O-])ccc2c1Cl)N1CCOCC1 study_system="human ether-à-go-go-related gene (hERG) potassium channel (human, UniProt Q12809)" assigned_label="Not met"
compound=CCCCc1cc(=O)oc2c(C)c(OCC(=O)NCCN3CCOCC3)ccc12 study_system="human ether-à-go-go-related gene (hERG) potassium channel (human, UniProt Q12809)" assigned_label="Not met"
compound=COc1ccc([N+](=O)[O-])cc1NS(=O)(=O)c1ccc(Cl)c(C(=O)Nc2sc3c(c2C#N)CCCCC3)c1 study_system="human ether-à-go-go-related gene (hERG) potassium channel (human, UniProt Q12809)" assigned_label=Met
compound=Cc1ccccc1NCc1ccc(O)c2ncccc12 study_system="human ether-à-go-go-related gene (hERG) potassium channel (human, UniProt Q12809)" assigned_label="Not met"
compound="COc1ccc(N2C(=O)C(Cl)=C(N3CCCC(C)C3)C2=O)cc1 (centres unmarked)" study_system="human ether-à-go-go-related gene (hERG) potassium channel (human, UniProt Q12809)" assigned_label="Not met"
compound=C=CCNC(=O)c1ccccc1NS(=O)(=O)c1ccc(SC)cc1 study_system="human ether-à-go-go-related gene (hERG) potassium channel (human, UniProt Q12809)" assigned_label=Met
compound=CC(C)(C)n1ncc2c(=O)n(Cc3cccc(Cl)c3)cnc21 study_system="human ether-à-go-go-related gene (hERG) potassium channel (human, UniProt Q12809)" assigned_label="Not met"
